assay name: PK of 20 kDa PEGylated relaxin polypeptides after a single subcutaneous injection in SD rats (Example 40)
Format: in vivo, Sprague-Dawley (SD) rats
settings: 0.5 mg/kg SC, SD rats
Excerpt: This example evaluates the pharmacokinetic properties of 20 kDa PEGylated relaxin polypeptides following a single subcutaneous injection in SD rats. 1st order elimination model and Gauss-Newton (Levenberg-Hartley) model fit equation. […] FIG. 8A-8/compares group mean serum concentration versus time for all PEG-Relaxin compounds dosed. All dose groups had measurable serum PEG-Relaxin levels.
Non-standard residues stand in square brackets, D forms with d. No end group written: not given here. Phe(4-Ac) = CC(=O)c1ccc(C[C@H](N)C(=O)O)cc1
assay readout: Tmax (h)
Quick reminder: number only, in h, skip the unit.

Enquiry: Reported Tmax, substance RLX-A-BW28-20KPEG-001: relaxin variant, B1 Ala, pAF at B chain position W28, 20K PEGylated (chain 1 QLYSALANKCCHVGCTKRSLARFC; chain 2 ASWMEEVIKLCGRELVRAQIAICGMST[Phe(4-Ac)](PEG 20 kDa)S; not fully specified (bridges); ends and bridges not checked) : ____
Return: 25.0

Enquiry: Query (substance): RLX-A-AA5-20KPEG-001: relaxin variant, B1 Ala, pAF at A chain position A5, 20K PEGylated (chain 1 QLYSXLANKCCHVGCTKRSLARFC; chain 2 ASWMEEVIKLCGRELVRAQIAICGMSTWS; not fully specified; non-natural residues) ; field requested: Tmax
Return: 25.0

Enquiry: Look at this substance and give its reported Tmax. RLX-A-AV13-20KPEG-001: relaxin variant, B1 Ala, pAF substituted for valine 13 in the A chain, 20K PEG attached (chain 1 QLYSALANKCCHXGCTKRSLARFC; chain 2 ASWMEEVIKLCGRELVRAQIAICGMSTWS; not fully specified; non-natural residues)
Return: 25.0

Enquiry: What measured Tmax goes with RLX-A-BV7-20KPEG-001: relaxin variant, B1 Ala, pAF at B chain position V7, 20K PEGylated (chain 1 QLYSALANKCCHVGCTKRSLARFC; chain 2 ASWMEE[Phe(4-Ac)](PEG 20 kDa)IKLCGRELVRAQIAICGMSTWS; not fully specified (bridges); ends and bridges not checked) ?
Return: 12.0

Enquiry: Query (substance): RLX-A-AR18-20KPEG-001: relaxin variant, B1 Ala, pAF at A chain position R18, 20K PEGylated (chain 1 QLYSALANKCCHVGCTKXSLARFC; chain 2 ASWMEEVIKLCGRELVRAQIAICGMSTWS; not fully specified; non-natural residues) ; field requested: Tmax
Return: 25.0
